meta.source: the RNAGym collection of RNA variant scans (doi:10.1073/pnas.2313332121)

B1: TPR 5TU (parent)
chain: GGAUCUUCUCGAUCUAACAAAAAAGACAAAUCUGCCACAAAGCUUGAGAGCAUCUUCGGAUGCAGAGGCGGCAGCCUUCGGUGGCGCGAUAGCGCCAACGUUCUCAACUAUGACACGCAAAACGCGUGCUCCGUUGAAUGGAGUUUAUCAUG

Variants of: B1
Assay: polymerase ribozyme fitness, log enrichment relative to wild type (log ratio); higher = more active; in vitro selection for triplet polymerase activity
Fewer inactive variants are shown than the library holds.
The reader will find reported polymerase ribozyme fitness (log ratio) values listed item by item below.
Give your answer as a number; write no unit.

Reference set (2 entries):
variant	reading
C75U C93G A121U C123U	-2.27
U4A G84A	-0.288

Exam item: I'd like to know its polymerase ribozyme fitness (log ratio). The variant in question is G81U C85U A115C G136C
Marked response: -3.36

Exam item: Ok, now C32U C54G G68U C75A
Marked response: -3.88

Exam item: A19U G84C , same question.
Marked response: -2.08

Exam item: A3G C27U G86A , same question.
Marked response: -3.94
